- Test system: RARb homodimer (NR concentration 270 nM)
- assay-overview: PBM binding z-score (relative to random genomic background probes); higher = stronger binding; sequences stand for … in GC…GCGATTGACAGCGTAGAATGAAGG
The entries below come with measured PBM binding z-score values attached.
Please reply with the number alone, leaving off any unit.

Below are worked cases with known answers.
# sequence-chain, obs-value
rows = [
    ("TCTCGTAGATCAGCAGGTTAAGAAAGCTGGCCAA", -0.209),
    ("AGAACGAGGGCAATGAGTTAATAGCACGGGTGGC", 1.08),
    ("ATCGAAAGGTCGAGGCGAGTATAGAGAAAGGGAA", 1.95),
    ("CCTACTAGGCCAAGGTCATTGATCAGTCAAAGCA", 3.74),
    ("TCAGTCAGGTGAAGGTAACTCAGGTACGCAGTCG", 0.729),
]

Would you kindly look at the next entry?
The recorded PBM binding z-score for entry ATCGAAAAGTCGAGGTGAGTATAGAGAAAGGGAA equals 0.0212

###

- System: PPARg homodimer (NR concentration 180 nM)
- assay-overview: PBM binding z-score (relative to random genomic background probes); higher = stronger binding; sequences stand for … in GC…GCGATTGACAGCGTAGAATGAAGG
The entries below come with measured PBM binding z-score values attached.
Please reply with the number alone, leaving off any unit.

# sequence-chain, PBM binding z-score
data = [
    ("TGATATAGGTAATACAGGTGAAAGTCGGCATCTA", 1.38),
    ("GGAACGAGGGCAAGTTGATAGTAGAGTTTGATGG", 0.584),
    ("AGAATGACGTTATACGTAGATCAGGGAAGAAAGT", -0.321),
    ("AGTCAAAGTTCATCCAGGTAACGTAAGATATGCT", 2.63),
    ("TTACCAAGGTGAGAGGTCGTTGATGCACGCCTTG", 1.63),
    ("ATCGAAAGCTCGAAGGTGAGTATACCCACCCGAA", -1.31),
    ("TCGAGTAGGTTACCAATGGGGCAGTCAGCTTTCT", -0.432),
    ("AGAACGAGGGCACTCTGAGTTGATAGCAGAGTAG", -0.209),
    ("CGTCCAAGGTCAAAGTCAGTGAAAGAGACTCGAA", 2.62),
    ("GATACAGGGTCAAGGCCAGAGTCCGCGTATTGAT", 1.62),
]

The recorded PBM binding z-score for entry GCTGCTAGGTCAAGTGATGGTCAGCTAAAGCTCG equals 1.55

The recorded PBM binding z-score for entry TTATATAGGTAAAAGGTGAAAGTCGGTGTGGTAA equals 2.84

The recorded PBM binding z-score for entry CCTTCCGGGTCACTGACAGGTTATAGCATTTGGA equals 2.37

The recorded PBM binding z-score for entry CAAACTAGGTCATGGTCAAAGTCGGTTTGTGCCA equals 2.21

The recorded PBM binding z-score for entry TAGCCTAGGCCATTGGGCCAGTATAGTACGCATC equals -1.33

The recorded PBM binding z-score for entry GCGACTGGGGCAAAGCAGGTAACCATAAGGTTGG equals -0.0633

The recorded PBM binding z-score for entry ATAACGAGGGCACGCTGAGTTGATAGCAGAGTAG equals 0.669

The recorded PBM binding z-score for entry ATCTCTAGGTAAGACTCAGGTCAGTGAAGAACGC equals 1.65

The recorded PBM binding z-score for entry CAAACTAGGTCGCGAAAGGTCAAAGTCGAATGAC equals 3.65

The recorded PBM binding z-score for entry CGAACTAGGTCATCCAGGACATTGAATACATTGA equals 2.2

The recorded PBM binding z-score for entry CAAACTAGGTCACCGCAAGGTCAAAGTCCGCATG equals 8.41

The recorded PBM binding z-score for entry GCAGACATGTGAAACGCAGGTAACTCAGGGTGGC equals -1.78

The recorded PBM binding z-score for entry CGGCCAAGGTCAGCAGGTCAGTGAAAGCGACGTG equals 2.33

The recorded PBM binding z-score for entry CCAACTAGGTCAAGGACAGTGAATCTCCGCACGC equals 2.38

The recorded PBM binding z-score for entry CAAACTAGGGCACCGGAAGGTCAAAGTCCGCATG equals 1.96

The recorded PBM binding z-score for entry TCATATAGGTGAAGGTGAAAGTCGAACGATATGA equals 0.35

The recorded PBM binding z-score for entry ATCGAAAGGGCGAAGGTGAGTATACCCACCCGAA equals 1.04

The recorded PBM binding z-score for entry CCGACTGGGGCTGAAAGGTTACCATACCATCCGG equals 0.352

The recorded PBM binding z-score for entry ATCGAAACGTCGAAGGTGAGTATACCCACCCGAA equals -0.242

The recorded PBM binding z-score for entry GCTGCTAGGTCAACTGCTGGTCAGCTAAAGCTCG equals 0.927

The recorded PBM binding z-score for entry CAAACTAGGTCAAGGACAAAGTCGGTTTGTGCCA equals 2.03

The recorded PBM binding z-score for entry TCTGCTAGGTTAACGATGGTCAGCTAATCTGCTA equals -1.29

The recorded PBM binding z-score for entry AACTCTAGGTAAAGATAGTTCAGTGAATGCAAAT equals 0.547

The recorded PBM binding z-score for entry ATATGTAGGTTATCGGGACATTCAGTTTGCGCAT equals 2.64

The recorded PBM binding z-score for entry ATCGAAAGGCCGTGAGGTGAGTATACAGAAAGGC equals -0.238

The recorded PBM binding z-score for entry CGTCAAAGTTCAACAAAGGTAACGTAAAGCACGC equals 3.04

The recorded PBM binding z-score for entry CATACAGGGTCAGTTAGGCCAGAGTAGGGACGGC equals 2.09
